# testedOn: BRD4(49-170) bromodomain (Homo sapiens (Human))
# assayMethodText: BRD4 AlphaScreen Assay
# runConditions: binding to biotin-H4(1-21) Ac-K5/8/12/16 peptide
Exercise: for every item that follows, state its recorded IC50.
Kindly provide the numeric value in µM only, without the unit symbol.

For CNC(=O)N1CCn2c(C3CCOCC3)nc(-c3c(F)ccc4cc(-c5cnc(C)s5)ncc34)c2C1 [Example 89] , what is its reported IC50?
6.84

Subsequent entry: CNC(=O)N1CCn2c(C3CC3(F)F)nc(-c3cccc4nc(-c5cnn(C)c5)c(C(F)F)cc34)c2C1 (stereo not shown) [Example 60]
15.8

Subsequent entry: CNC(=O)N1CCn2c(C3CC3)nc(-c3cccc4cc(-c5cnn(C)c5)ncc34)c2C1 [Example 124]
6.48

Subsequent entry: COC(=O)N1CCn2c(C3CCOC3)nc(-c3ccc4c(c3)c(-c3cnn(C)c3)nn4C)c2C1 (stereo not shown) [Example 5]
13.9

Subsequent entry: CNC(=O)c1ccc(-c2nc3cccc(-c4nc(C5CC5)n5c4CN(C(=O)NC)CC5)c3cc2C#N)cn1 [Example 99]
8.71

Subsequent entry: CNC(=O)N1CCn2c(C3CC3)nc(-c3ccc4c(c3)c(-c3cnn(C)c3)nn4C)c2C1 [Example 105]
7.53

Subsequent entry: CNC(=O)N1CCn2c(C3CCC(F)(F)CC3)nc(-c3cccc4cc(-c5cn(C)nc5C)ncc34)c2C1 [Example 76]
11.9

Subsequent entry: CNC(=O)N1CCn2c(C3CC3)nc(-c3cncc4cc(-c5cnn(C)c5)c(C(F)F)cc34)c2C1 [Example 40]
4.78

Subsequent entry: CNC(=O)N1CCn2c(C3CCC(F)(F)C3)nc(-c3cccc4nc(-c5cnn(C)c5)c(C(F)F)cc34)c2C1 (stereo not shown) [Example 61]
13.9

Subsequent entry: CNC(=O)N1CCn2c(C3CCOCC3)nc(-c3cccc4cc(N5CCOCC5)ncc34)c2C1 [Example 63]
23.6

Subsequent entry: CNC(=O)N1CCn2c(C3CCC(F)(F)CC3)nc(-c3cccc4nc(-c5cnn(C)c5)c(C#N)cc34)c2C1 [Example 82]
17.9

Subsequent entry: CNC(=O)N1CCn2c(C3CC(F)(F)C3)nc(-c3cccc4cc(-c5cnc(C)s5)ncc34)c2C1 [Example 96]
5.54

Subsequent entry: CNC(=O)N1CCn2c(C3CCS(=O)(=O)CC3)nc(-c3ccc4c(c3)c(-c3cnn(C)c3)nn4C)c2C1 [Example 15]
21.9

Subsequent entry: CC(=O)N1CCn2c(C3CC3)nc(N3CCCc4cc(-c5cnn(C(F)F)c5)ccc43)c2C1 [Example 110]
11.2

Subsequent entry: CC(=O)N1CCn2c(C3CC3)nc(N3CCCc4cc(-c5ccnc(N6CCOCC6)c5)ccc43)c2C1 [Example 112]
21

###

# testedOn: GST-CBP(1081-1197) bromodomain (Homo sapiens (Human))
# Sequence (Q92793 1081-1197): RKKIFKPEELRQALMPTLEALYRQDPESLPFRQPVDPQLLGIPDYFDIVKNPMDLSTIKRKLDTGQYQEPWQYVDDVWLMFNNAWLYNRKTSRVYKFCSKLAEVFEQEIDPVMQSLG
# assayMethodText: CBP AlphaScreen Assay
# runConditions: binding to biotin-H4(1-21) Ac-K5/8/12/16 peptide
# Description: Specific binding of the CBP or BRD4 bromodomain to the acetylated peptide derived from the H4 histone substrate (tetra acetylated H4(1-21) Ac-K5/8/12/16) was measured in absence or presence of inhibitors. The standard dose response curves were fitted by Genedata Screener software using the variable-slope model: Signal=Signalnegative control+(SignalDMSO control−Signalnegative control)/(1+(IC50/Dose)^Hill slope). Only Signal and Dose in the equation were treated as known values.
Exercise: for every item that follows, state its recorded pIC50.
Lab note — pIC50 values are minus log10 of concentrations in M.

For CNC(=O)N1CCn2c(C3CCC(F)(F)CC3)nc(-c3cccc4cc(-c5cnc(C)s5)ncc34)c2C1 , what is its reported pIC50?
9.00

Subsequent entry: CNC(=O)N1CCn2c(C3CC3)nc(-c3cccc4cc(-c5cnc(C)s5)ncc34)c2C1
9.00

Subsequent entry: CNC(=O)N1CCn2c(C3CC3)nc(-c3cccc4nc(N5CC6(COC6)C5)c(C#N)cc34)c2C1
7.72

Subsequent entry: CNC(=O)N1CCn2c(C3CCC(F)(F)CC3)nc(-c3cccc4cc(-c5cn(C)nc5C)ncc34)c2C1
8.52

Subsequent entry: CC(=O)N1CCn2c(C3CCNCC3)nc(-c3ccc4c(c3)c(-c3cnn(C)c3)nn4C)c2C1
6.83

Subsequent entry: CC(=O)N1CCn2c(C3CC3)nc(-c3ccc4c(c3)c(-c3cn(C)nc3C)nn4C)c2C1
6.54

Subsequent entry: CNC(=O)N1CCn2c(C3CCC(F)(F)CC3)nc(-c3cccc4cc(-c5ccn(C)n5)ncc34)c2C1
8.70
